I'd be grateful if you could share measured IC50 for these entries.
biological target: human C5aR(CD88) (Homo sapiens); construct: expressed in transfected cells; host or cells: rat basophilic leukemia cells (RBL); assay: Determination of the IC50 value in an enzyme release assay (functional assay, antagonistic activity); assay type: cell-based; details: antagonistic activity; IC50 group in enzyme release assay, RBL cells expressing human C5aR(CD88); read-out: activity (group)
Sequence (P21730 whole entry): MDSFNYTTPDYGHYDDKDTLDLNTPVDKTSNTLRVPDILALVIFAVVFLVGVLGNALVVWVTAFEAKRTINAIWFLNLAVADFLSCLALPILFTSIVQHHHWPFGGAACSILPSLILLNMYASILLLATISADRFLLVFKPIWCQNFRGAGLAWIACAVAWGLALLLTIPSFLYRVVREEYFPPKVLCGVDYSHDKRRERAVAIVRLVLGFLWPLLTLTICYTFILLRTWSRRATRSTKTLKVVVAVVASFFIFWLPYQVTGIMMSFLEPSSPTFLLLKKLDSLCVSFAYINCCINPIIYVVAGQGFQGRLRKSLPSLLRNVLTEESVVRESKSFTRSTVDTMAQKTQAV
Positions of bridges follow the written chain, without caps; N, C: chain ends. Non-standard residues stand in square brackets, D forms with d. Residues, ends and D or L forms follow the SMILES beside them. *: point of attachment. Phe(4-F) = N[C@@H](Cc1ccc(F)cc1)C(=O)O; 1Nal = N[C@@H](Cc1cccc2ccccc12)C(=O)O; 2Nal = N[C@@H](Cc1ccc2ccccc2c1)C(=O)O; Bta = N[C@@H](Cc1csc2ccccc12)C(=O)O; d(hLeu) = CC(C)CC[C@@H](N)C(=O)O; 2Thi = N[C@@H](Cc1cccs1)C(=O)O; dCha = N[C@H](CC1CCCCC1)C(=O)O; Chg = N[C@H](C(=O)O)C1CCCCC1; Orn = NCCC[C@H](N)C(=O)O; Aze = O=C(O)[C@@H]1CCN1; X17 = c1cc(CC*)ccn1

Example entries and their recorded answers appear below.
CC(=O)NCC(=O)N[C@@H](Cc1cccs1)C(=O)N[C@@H](CCCN)C(=O)N1CC[C@H]1C(=O)N[C@H](CC1CCCCC1)C(=O)N[C@@H](Cc1csc2ccccc12)C(=O)N[C@@H](Cc1ccccc1)C(N)=O [Compound 157, Ac-Gly-Thi-Orn-Aze-cha-Bta-Phe-NH2] (Ac-G[2Thi][Orn][Aze][dCha][Bta]F-NH2); 20 to 50 nM
CC(=O)N[C@@H](Cc1ccccc1)C(=O)N[C@@H](CCCN)C(=O)N1CCC[C@H]1C(=O)N[C@H](CCC(C)C)C(=O)N[C@@H](Cc1csc2ccccc12)C(=O)N[C@H](C(N)=O)C1CCCCC1 [Compound 275, Ac-Phe-Orn-Pro-hle-Bta-Chg-NH2] (Ac-F[Orn]P[d(hLeu)][Bta][Chg]-NH2); 50 to 200 nM
CC(=O)N[C@@H](Cc1ccccc1)C(=O)N[C@H]1CCCNC(=O)[C@H](CCCCNC(=N)N)NC(=O)[C@H](Cc2c[nH]c3ccccc23)NC(=O)[C@@H](CC2CCCCC2)NC(=O)[C@@H]2CCCN2C1=O; 200 to 2000 nM
CC(=O)N[C@@H](Cc1ccccc1)C(=O)N[C@@H](CCCN)C(=O)N1CCC[C@H]1C(=O)N[C@H](CCC(C)C)C(=O)N[C@@H](Cc1ccc(F)cc1)C(=O)N[C@@H](Cc1ccc2ccccc2c1)C(N)=O [Compound 297, Ac-Phe-Orn-Pro-hle-Pff-2Ni—NH2] (Ac-F[Orn]P[d(hLeu)][Phe(4-F)][2Nal]-NH2); 50 to 200 nM
CC(=O)N[C@@H](Cc1ccccc1)C(=O)N[C@H]1CCCNC(=O)[C@H](Cc2cccc3ccccc23)NC(=O)[C@H](Cc2c[nH]c3ccccc23)NC(=O)[C@@H](CC2CCCCC2)NC(=O)[C@@H]2CCCN2C1=O [Compound 188, Ac-Phe-[Orn-Pro-cha-Trp-1Ni]] (Ac-F[Orn]P[dCha]W[1Nal]; lactam 2-C); 50 to 200 nM
CC(=O)N[C@@H](Cc1ccccc1)C(=O)N[C@H]1CCCNC(=O)[C@H](CSCCc2ccncc2)NC(=O)[C@H](Cc2c[nH]c3ccccc23)NC(=O)[C@@H](CC2CCCCC2)NC(=O)[C@@H]2CCCN2C1=O [compound 19] (Ac-F[Orn]P[dCha]WC(X17); lactam 2-C); 200 to 2000 nM

Alright, here's another compound for you.
Problem: Item under review: CC(=O)N[C@@H](Cc1ccccc1)C(=O)N[C@@H](CCCN)C(=O)N1CCC[C@H]1C(=O)N[C@H](CC1CCCCC1)C(=O)N[C@@H](Cc1c[nH]c2ccccc12)C(=O)N[C@@H](Cc1cccs1)C(N)=O [Compound 80, Ac-Phe-Orn-Pro-cha-Trp-Thi-NH2] (Ac-F[Orn]P[dCha]W[2Thi]-NH2) . Reported IC50?
Result: 50 to 200 nM

Hey, just so you know, these numbers are from patent US20080161232A1.
